Target: cAMP and cAMP-inhibited cGMP 3',5'-cyclic phosphodiesterase 10A (Homo sapiens)
pIC50: −log10 of the molar value.
Is pIC50 at least 7? Then true (1). If not, false (0).

O=C(NC1CC1)c1ccsc1NC(=O)c1nc(C2CC2)ccc1Nc1cncnc1 :: true (1)
O=C(NC1CCN(Cc2ccccc2)CC1)c1nc(C2CC2)cnc1Nc1cncnc1 [Roche-Dataset for PDE10A, Compound 823] :: false (0)
CNC(=O)c1cc2[nH]c(-c3ccccc3)nc2cc1NC(=O)c1oc(COCc2ccccc2)nc1C [Roche-Dataset for PDE10A, Compound 152] :: true (1)

Now, please, on to the next compound.
State whether the measured pIC50 reaches 7, counting equality as reaching it, for O=C(c1nc(C2CC2)cnc1Nc1cncnc1)N1CCN(CCc2ccccc2)CC1 [Roche-Dataset for PDE10A, Compound 1015]
false (0)

###

Molecular target: cAMP and cAMP-inhibited cGMP 3',5'-cyclic phosphodiesterase 10A (Homo sapiens, UniProt Q9Y233)
test_readout: pIC50
One number for each entry, as −log10 of the molar value.

Previously resolved entries follow.
Cn1cc(-c2ccccc2)nc1/C=C/c1ccc2ccccc2n1 [Roche-Dataset for PDE10A, Compound 180] :: 6.57
Cc1c(Br)cn2nc(/C=C/c3nc(N4CCCC4)n(C)n3)nc2c1C [Roche-Dataset for PDE10A, Compound 364] :: 7.14
Cc1ccccc1-c1cn2c(n1)C[C@H](NC(=O)c1c(C(=O)N3CCC3)cnn1C)CC2 [Roche-Dataset for PDE10A, Compound 495] :: 8.11

Okay, next one:
So what's the measured pIC50 for this one? CCn1nc(NC(=O)c2c(C(=O)N3CCC3)cnn2C)cc1-c1cccc(Cl)c1 [Roche-Dataset for PDE10A, Compound 744]
5.79

###

Consider compounds characterized by their pIC50 with cAMP and cAMP-inhibited cGMP 3',5'-cyclic phosphodiesterase 10A (Homo sapiens).
One number for each entry, as −log10 of the molar value.

Recorded pIC50, per entry:
Cc1cnc(C)n2nc(CCc3nc(N4CCNC(=O)C4)nn3C)nc12 [Roche-Dataset for PDE10A, Compound 483] :: 6.07
Cn1nc(-c2ccccn2)cc1NC(=O)c1c(Nc2cncnc2)cc[nH]c1=O [Roche-Dataset for PDE10A, Compound 711] :: 7.74
CCN(CC)C(=O)c1cnn(C)c1C(=O)Nc1ccn2nc(N3CCOCC3)nc2c1 [Roche-Dataset for PDE10A, Compound 203] :: 7.66
O=C(Nc1ccc2cccnc2c1)c1nc(C2CC2)ccc1Nc1cncnc1 [Roche-Dataset for PDE10A, Compound 929] :: 8.24
Cc1cnc(C)n2nc(/C=C/c3nc(N4CCCC4)n(C)n3)nc12 [Roche-Dataset for PDE10A, Compound 443] :: 7.70

Dear colleague, could you please provide pIC50 for the compounds listed below?
1. O=C1c2ccccc2CN1c1ccc2nc(-c3ccccc3)[nH]c2c1 [Roche-Dataset for PDE10A, Compound 307]
2. O=C(Nc1ccn2nc(-c3ccccc3)nc2c1)c1c(C(=O)N2CCC2)cnn1CCF [Roche-Dataset for PDE10A, Compound 131]
3. O=C(NCCc1noc(-c2ccccc2)n1)c1nc(C2CC2)cnc1Nc1cncnc1 [Roche-Dataset for PDE10A, Compound 271]
4. CN(C)c1nc(/C=C/c2nc(Br)cs2)nc2ccc(Cl)cc12 [Roche-Dataset for PDE10A, Compound 612]

6.43
5.87
7.32
5.83

Fill in pIC50 for each of the 3 compounds listed.
1. CNC(=O)[C@H]1CCC[C@@H]1NC(=O)c1nc(C2CC2)cnc1Nc1cncnc1 [Roche-Dataset for PDE10A, Compound 1000]
2. O=C(Nc1ccn2nc(-c3ccccc3)nc2c1)c1cnc(Cl)c(Cl)c1 [Roche-Dataset for PDE10A, Compound 518]
3. CCN(C)C(=O)c1cnn(C)c1C(=O)N[C@@H]1CCn2cc(-c3cccc(OC)c3)nc2C1 [Roche-Dataset for PDE10A, Compound 136]

6.16
5.99
5.76

Batch lookup, pIC50 per entry.
1. Cn1ncc(C(=O)O)c1C(=O)Nc1ccn2nc(-c3cccnc3F)nc2c1 [Roche-Dataset for PDE10A, Compound 458]
2. CN(C)C(=O)c1cc(NC(=O)c2nc(C3CC3)ccc2Nc2cncnc2)n(C)n1 [Roche-Dataset for PDE10A, Compound 404]

1: 7.18; 2: 6.35

All figures here come from BindingDB's records for doi:10.1007/s10822-022-00478-x.
